Data provenance is PubChem BioAssay AID1159580.

Assay: chemical genetic growth profiling, strain panel (AID 1159580);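 also: tested at 20 µM; growth read once vehicle control cultures reached saturation at 30 °C; lower values mean less growth of the strain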
Settings: S. cerevisiae deletion strains, growth OD, locus YFR010W, strain ubp6
Hit rate of the full screen: of about 5,500 compounds, about 2,000 (36%) were called active. Inconclusive results (about 18%) are left out. Rule as the data show it: active = normalized growth mostly below about 0.91 (no sharp cut-off); inconclusive = no clear call, values can overlap the other calls; inactive = mostly above about 0.92. Some of the results follow.
Outcome codes: t for active, f for inactive

| compound | class_label |
| --- | --- |
| CCN[C@@H]1C[C@H](N)[C@@H](O[C@H]2OC(CN)=CC[C@H]2N)[C@H](O)[C@H]1OC1OC[C@](C)(O)[C@H](NC)[C@H]1O (some centres undefined) | f |
| COc1ccc2c(c1)CCC1C2CCC2(C)C1C[C@@H](O)C2O (some centres undefined) | f |
| CC(CC(C(N)=O)(c1ccccc1)c1ccccc1)N(C)C (centres undefined) | f |
| O=C(OC1Cc2c(O)cc(O)cc2OC1c1cc(=O)c(O)c2c(O)c(O)cc(C3Oc4cc(O)cc(O)c4CC3O)c2c1)c1cc(O)c(O)c(O)c1 (centres undefined) | t |
| CC(C1OC(C)(C)C(O)C1O)[C@@H]1CC[C@]2(C)C3=CCC4C(C)(C)C(=O)CC[C@]4(C)C3CC[C@@]12C (some centres undefined) | f |
| CCC(N)C(O)c1ccc(O)c(O)c1 (centres undefined) | f |
| COc1ccc(-c2oc3cc(O[C@H]4O[C@H](CO)[C@@H](O)[C@H](O)[C@H]4O)c(OC)c(O)c3c(=O)c2OC)cc1O | f |
| CC(C)(C)NCC(O)c1cc(O)cc(O)c1 (centres undefined) | f |
| COc1ccc2ccc(=O)oc2c1 | f |
| CCOC(=O)c1c(C)cc(O)cc1O | f |
| COc1ccc(-c2cc(=O)c3c(O)cc(O[C@@H]4O[C@H](CO[C@H]5O[C@H](C)[C@@H](O)[C@H](O)[C@@H]5O)[C@@H](O)[C@H](O)[C@H]4O)cc3o2)cc1O | f |
| CN(C)c1ccc2nc3ccc(=[N+](C)C)cc-3sc2c1 | f |
| C[C@@H]1O[C@@H](OC[C@H]2OC(Oc3c(-c4ccc(OCCO)c(OCCO)c4)oc4cc(OCCO)cc(O)c4c3=O)[C@H](O)[C@@H](O)[C@@H]2O)[C@H](O)[C@H](O)[C@H]1O (some centres undefined) | f |
| CN[C@@H]1C(O)[C@@H](O[C@@H]2[C@@H](O)[C@H](O[C@H]3OC(CN)=CC[C@H]3N)[C@@H](N)C[C@H]2N)OC[C@]1(C)O (some centres undefined) | f |
| CC(C)(C)NCC(O)c1cc(Cl)c(N)c(Cl)c1 (centres undefined) | f |
| O=c1c(O)c(-c2ccc(O)c(O)c2)oc2c(O)c(O)cc(O)c12 | f |
| CCCCCC(=O)Cc1cc(O)cc(O)c1C(=O)Oc1cc(CC(=O)CCCCC)c(C(=O)O)c(OC)c1 | f |
| O=C(O[C@@H]1Cc2c(O)cc(O)cc2O[C@@H]1c1cc(O)c(=O)c2c(O)c(O)cc([C@H]3Oc4cc(O)cc(O)c4C[C@H]3O)c2c1)c1cc(O)c(O)c(O)c1 | t |
| COc1cc2occc2c2oc(=O)ccc12 | f |
